Organism: Rattus norvegicus
protocol description: Open TG-GATES - Regimen: Single
Format: toxicity, organism-based, Sprague-Dawley
Design: regimen Single, gender Male, age 6 weeks
condition parameters: in vivo, po, 100 mg/kg, 3 h, tissue Plasma, route gavage, dose level High
property label: AST (IU/L)
Reply numerically in IU/L, unit not repeated.

Here is how some molecules turned out for AST.
[[record]]
input_smiles = "CN(C)CCCN1c2ccccc2CCc2ccccc21"
numeric_result = 73.5

[[record]]
input_smiles = "CN(C)CCN(Cc1cccs1)c1ccccn1"
numeric_result = 82.2

[[record]]
input_smiles = "CC1=C(/C=C/C(C)=C/C=C/C(C)=C/CO)C(C)(C)CCC1"
numeric_result = 77


Next, consider the following molecule.
Looking for the measured AST of `CN(C)CCCN1c2ccccc2CCc2ccc(Cl)cc21` , can you help?
76.6

FYI, the data here is from ChEMBL document CHEMBL3885861.
